# Measurement Description: Metabolic stability in mouse plasma assessed as compound remaining measured at 2 hrs
# Format: ADME, cell-free
# Condition Context: read-out: Stability
Recorded remaining at 2 h by entry
Write down the numeric answer in % and omit the unit.

Sample records with remaining at 2 h:
1. CC(=O)N[C@H]1Cc2ccc(cc2)OCCCC[C@@H](C(=O)N[C@@H](CCCNC(=N)N)C(=O)c2nc3ccccc3s2)NC(=O)[C@H](Cc2c[nH]c3ccccc23)NC1=O	78
2. CC(=O)N[C@H]1Cc2ccc(cc2)OC/C=C/C[C@@H](C(=O)N[C@@H](CCCNC(=N)N)C(=O)c2nc3ccccc3s2)NC(=O)[C@H](CC(C)C)NC1=O	86
3. CC(=O)N[C@H]1C/C=C/COc2ccc(cc2)C[C@@H](C(=O)N[C@@H](CCCNC(=N)N)C(=O)c2nc3ccccc3s2)NC(=O)[C@H](CC(C)C)NC1=O	84
4. CC(=O)N[C@H]1Cc2ccc(cc2)OCCCC[C@@H](C(=O)N[C@@H](CCCNC(=N)N)C(=O)c2nc3ccccc3s2)NC(=O)[C@H](Cc2ccccc2)NC1=O	80
5. CC(=O)N[C@H]1CCCCn2cc(nn2)C[C@H](C(=O)N[C@@H](CCCNC(=N)N)C(=O)c2nc3ccccc3s2)NC(=O)[C@H](CC(C)C)NC1=O	82
6. CC(=O)N[C@H]1Cc2ccc(cc2)OC/C=C\CNC(=O)CC[C@@H](C(=O)N[C@@H](CCCNC(=N)N)C(=O)c2nc3ccccc3s2)NC(=O)[C@H](CC(C)C)NC1=O	66

q: Give reported remaining at 2 h value for CC(=O)N[C@H]1Cc2cn(nn2)CCCC[C@H](C(=O)N[C@@H](CCCNC(=N)N)C(=O)c2nc3ccccc3s2)NC(=O)[C@H](CC(C)C)NC1=O
a: 83

Numbers sourced from ChEMBL document CHEMBL5518225.
